Data origin: patent US20090221624A1

System: DNG (D2-hRuPac cells)
Assay: DNG antiviral activity, D2-hRuPac cells, Renilla luciferase
Format: cell-based, Dengue fever virus
Conditions: Dengue virus, secondary screening
pEC50: −log10 of the molar value.
Would you mind labelling by pEC50? At or over 5 is Yes, under is No.

{"columns": ["Record smiles", "Category"],
 "data": [
  ["Cc1cc(C)c2nc(C)cc(Nc3ccc(Cl)c(Cl)c3)c2c1", "No"],
  ["c1coc(CNc2c3c(nc4ccccc24)CCC3)c1", "No"],
  ["CCOc1ccc2nc(C)cc(Nc3ccc(OCc4ccccc4Cl)cc3)c2c1", "Yes"],
  ["Cc1ccc(Nc2cc(C)nc3c2ccc2ccccc23)cc1", "No"],
  ["Cc1ccc2nc(C)cc(N3CCC(C)CC3)c2c1", "No"]
]}

Okay, next one:
Hi, just wondering whether "CCOC(=O)c1cnc2ccc(OCC)cc2c1Nc1ccccc1CC" shows pEC50 of 5 or higher.
No

* * *

Test: in vitro
Conditions: EBOV CC50
Catalogue of CC50 readings, one per entry.
State just the number; it will be interpreted in µM.

The examples below pair each entry with its known result.
{"columns": ["Compound", "Value units", "CC50"],
 "data": [
  ["CCOC(=O)c1ccc2ncc(C(=O)OCC)c(NCc3ccco3)c2c1", "µM", 35.4],
  ["Cc1ccc2nc(C)cc(NCc3ccco3)c2c1", "µM", 57.9],
  ["CCOc1ccc2nc(C)cc(Nc3ccc(N(C)C)cc3)c2c1", "µM", 31],
  ["COc1ccccc1Nc1cc(C)nc2c(C)c(C)cc(N)c12", "µM", 52.6],
  ["Cc1ccc(Nc2cc(C)nc3c2ccc2ccccc23)cc1", "µM", 73],
  ["CCOC(=O)c1cnc2c(OC)cccc2c1NCC(C)O (centres unmarked)", "µM", 34.6],
  ["CCOC(=O)c1cnc2ccc(F)cc2c1NCCCN(C)C", "µM", 64.6],
  ["c1coc(CNc2c3c(nc4ccccc24)CCC3)c1", "µM", 58.5],
  ["Cc1ccc(Nc2c3c(nc4ccc(C)cc24)CCC3)cc1", "µM", 43.8],
  ["Cc1ccc2nc(C)cc(NCc3ccccc3)c2c1", "µM", 56.4]
]}

Name the recorded CC50 for CCOC(=O)c1cnc2c(OC)cccc2c1NC(C)c1ccccc1 (centres unmarked) .
49.3

Proceed to "CCOC(=O)c1cnc2ccc(OCC)cc2c1NCc1ccco1"
47.3

Now give it for "CCOc1ccc2nc(C)cc(Nc3ccc(Br)cc3)c2c1" too.
28.8

* * *

Test: in vitro
Conditions: HCV CC50
CC50 values for the compounds below.

Field: example entries. Status: answers known.
{"columns": ["Record smiles", "Recorded value"],
 "data": [
  ["Cc1cc(C)c2nc(C)cc(Nc3ccc(Cl)c(Cl)c3)c2c1", "8.3 µM"],
  ["CC(=O)c1cccc(Nc2cc(C)nc3ccccc23)c1", "30.4 µM"],
  ["COC(=O)c1ccc(Nc2cc(C)nc3c(C)cccc23)cc1", "46.5 µM"]
]}

Look up CC50: "Cc1cc(NNC(=O)OCc2ccccc2)c2ccccc2n1"
≥ 75 µM

Now consider "CCOC(=O)c1cnc2c(C(F)(F)F)cccc2c1Nc1ccc(S(=O)(=O)Nc2nc(C)cc(C)n2)cc1" and answer again.
≥ 75 µM

What about this compound? "Cc1ccc2nc(C)cc(NCc3ccco3)c2c1"
≥ 75 µM

Same read-out for "Cc1ccc2nc(C)cc(Nc3ccccc3)c2c1" ?
32.3 µM

Repeat with "CCOC(=O)c1cnc2c(C)cc(C)cc2c1NCc1ccco1"
53 µM

And then "c1cncc(CNc2c3ccccc3nc3ccccc23)c1" , what is it?
9.67 µM

Try this compound next: "CCOC(=O)c1cnc2ccc(OCC)cc2c1Nc1ccc(I)cc1"
≥ 75 µM

* * *

Item-by-item account of inhibition at 25 µM
Test system: EBOV minigenome
Assay: microbe, parasite or virus in culture
Format: cell-based, Ebola virus
Details: Zaire ebolavirus, 24 h, read-out: EBOV Inh
The figure you give is taken to be in %; do not add the unit.

Check out these entries, answers already filled in.
{"columns": ["Record smiles", "Value units", "inhibition at 25 µM"],
 "data": [
  ["COc1cccc2c(Nc3ccc4c(c3)OCCO4)cc(C)nc12", "%", 72],
  ["CCOC(=O)c1ccc2ncc(C(=O)OCC)c(NCCCOC(=O)C(Cl)(Cl)Cl)c2c1", "%", 90.1],
  ["Cc1ccc2nc(C)cc(NCc3ccccc3)c2c1", "%", -29.5],
  ["c1ccc2cc(Nc3c4ccccc4nc4ccccc34)ccc2c1", "%", 39.8],
  ["COC(=O)c1ccc(Nc2c3c(nc4ccccc24)CCC3)cc1", "%", 4.74],
  ["Cc1ccc2nc3c(c(Nc4cccc(C(F)(F)F)c4)c2c1)CCC3", "%", 38.8],
  ["Cc1ccc2nc3c(c(Nc4ccc(O)cc4)c2c1)CCC3", "%", 7.83],
  ["Cc1cc(Nc2cccc(Cl)c2C)c2cccc(C)c2n1", "%", 81.8],
  ["CCOC(=O)c1cnc2ccc(OCC)cc2c1Nc1ccc(I)cc1", "%", 31.9]
]}

Next compound, please.
Could you tell me which inhibition at 25 µM is on file for "CCOC(=O)c1cnc2c(OC)cccc2c1NCc1cccnc1" ?
74.5

* * *

Assay: in vitro
Details: SINV CC50
Entries and their CC50
Give a bare numeral; the unit µM is implied.

The following molecules have reported results that may help.
{"columns": ["Molecule", "Recorded value"],
 "data": [
  ["CCOC(=O)c1cnc2ccc(OCC)cc2c1NCc1ccco1 [Compound 36]", 47.3],
  ["Cc1ccc2nc3c(c(Nc4ccccc4)c2c1)CCC3 [Compound 27]", 50.7],
  ["c1ccc2cc(Nc3c4ccccc4nc4ccccc34)ccc2c1 [Compound 1]", 47.6],
  ["Cc1ccc2nc3c(c(Nc4ccc(N5CCOCC5)cc4)c2c1)CCC3 [Compound 21]", 44.8],
  ["CCOc1ccc2nc(C)cc(Nc3ccc(OC)c(OC)c3)c2c1 [Compound 56]", 27.8],
  ["Cc1cc(C)c2nc(C)cc(Nc3ccc(Cl)c(Cl)c3)c2c1 [Compound 53]", 49.1],
  ["COC(=O)c1ccc(Nc2cc(C)nc3cc(Cl)ccc23)cc1 [Compound 14]", 53.7],
  ["c1coc(CNc2c3c(nc4ccccc24)CCC3)c1 [Compound 10]", 58.5],
  ["CCOC(=O)c1cnc2c(OC)cccc2c1NCc1ccco1 [Compound 67]", 29.9],
  ["CCOC(=O)c1cnc2c(Cl)cc(Cl)cc2c1NCc1ccco1 [Compound 52]", 44.1]
]}

What value of CC50 has been reported for the following molecule? COc1ccc2nc(C)cc(Nc3ccc(OCc4ccccc4Cl)cc3)c2c1 [Compound 43]
26.1

Do the same for CCOC(=O)c1cnc2ccc(OC)cc2c1NCc1ccco1 [Compound 29] please
22.1

Can you handle CCOc1ccc2nc(C)cc(Nc3ccc(C)c(Cl)c3)c2c1 [Compound 45] next?
25.3

Subsequent entry: CCOC(=O)c1cnc2ccccc2c1NCc1ccco1 [Compound 30]
55.4

Also CCOC(=O)c1cnc2ccc(OCC)cc2c1Nc1ccccc1CC [Compound 34] , if possible.
61.9

How about CCOC(=O)c1cnc2c(OC)cccc2c1NC(C)c1ccccc1 (stereo not shown) [Compound 71] ?
49.3

Entry Cc1cc(Nc2ccc(C)c(C)c2)c2cc(Cl)ccc2n1 [Compound 47] please
56

Another: CCOC(=O)c1cnc2ccc(F)cc2c1NCCCN(C)C [Compound 66]
64.6

Now consider CCOC(=O)c1cnc2ccc(C)cc2c1NCc1ccco1 [Compound 39] .
26.9

* * *

Test: in vitro
Conditions: YFV CC50
Reported CC50 values are given for each entry in this list.
The reply should contain only the number, in µM.

{"columns": ["Compound", "CC50 (µM)"],
 "data": [
  ["CCOC(=O)c1cnc2c(Cl)cccc2c1NCc1ccco1", 48.3],
  ["CCOC(=O)c1ccc2ncc(C(=O)OCC)c(NCc3ccco3)c2c1", 35.4]
]}

Could you tell me which CC50 is on file for "c1cncc(CNc2c3ccccc3nc3ccccc23)c1" ?
28.6

Do the same for "Cc1ccc2nc(C)cc(Nc3ccccc3)c2c1" please
52.3

Let us now turn to "Cc1ccc2nc3c(c(Nc4ccc(N5CCOCC5)cc4)c2c1)CCC3"
44.8

CCOC(=O)c1cnc2c(OC)cccc2c1NCC(C)O (stereo not shown) , same question.
34.6

Request: "CCc1ccccc1Nc1c2ccccc2nc2ccccc12"
32.9

* * *

Experiment: in vitro
Settings: WNV CC50
Measurement kind: CC50 (µM)
Kindly answer with a numeric value in µM, unit omitted.

Consider the following illustrative entries.
{"columns": ["Molecule", "Measurement kind", "Value units", "Recorded value"],
 "data": [
  ["Cc1ccc2nc3c(c(Nc4ccccc4)c2c1)CCC3 [Compound 27]", "CC50", "µM", 50.7],
  ["CCOC(=O)c1cnc2c(OC)cccc2c1NCc1ccccc1 [Compound 62]", "CC50", "µM", 43.5],
  ["CCOc1ccc2nc(C)cc(Nc3ccc(Cl)cc3)c2c1 [Compound 59]", "CC50", "µM", 21.2],
  ["COC(=O)c1ccc2nc(C)cc(Nc3cccc(O)c3)c2c1 [Compound 73]", "CC50", "µM", 72.3],
  ["CCOC(=O)c1ccc2ncc(C(=O)OCC)c(NCc3ccco3)c2c1 [Compound 13]", "CC50", "µM", 35.4],
  ["COc1cccc2c(Nc3ccc4c(c3)OCCO4)cc(C)nc12 [Compound 22]", "CC50", "µM", 57.2],
  ["CCOC(=O)c1cnc2c(OC)cccc2c1NC(C)c1ccccc1 (centres unmarked) [Compound 71]", "CC50", "µM", 49.3],
  ["C=CCNc1c2c(nc3ccccc13)CCC2 [Compound 12]", "CC50", "µM", 71.7],
  ["CCOC(=O)c1ccc2nc(C)cc(Nc3ccc(C)cc3C)c2c1 [Compound 51]", "CC50", "µM", 56.1],
  ["CCOC(=O)c1cnc2c(Cl)cc(Cl)cc2c1NCc1ccco1 [Compound 52]", "CC50", "µM", 44.1]
]}

Entry under review: CCOC(=O)c1cnc2ccc(F)cc2c1NCCCN(C)C [Compound 66] . Reported CC50?
64.6

Record: CCOC(=O)c1cnc2c(OC)cccc2c1NCC(C)O (centres unmarked) [Compound 69]
34.6

Likewise for CCOC(=O)c1ccc(Nc2cc(C)nc3c2ccc2ccccc23)cc1 [Compound 4] ?
72.9

Now the same for CCOC(=O)c1cnc2ccc(C)cc2c1NCc1ccco1 [Compound 39]
26.9

Next molecule: Cc1cc(Nc2ccc(C)c(C)c2)c2cc(Cl)ccc2n1 [Compound 47]
56

Follow-up entry: CCOC(=O)c1cnc2ccc(OCC)cc2c1NCc1ccco1 [Compound 36]
47.3

Please answer likewise for CCOC(=O)c1cnc2c(C)cc(C)cc2c1NCCCN(C)C [Compound 75]
23.4
